Experimental Target: Tyk2 (Homo sapiens (Human), UniProt P29597)
Sequence (P29597 whole entry): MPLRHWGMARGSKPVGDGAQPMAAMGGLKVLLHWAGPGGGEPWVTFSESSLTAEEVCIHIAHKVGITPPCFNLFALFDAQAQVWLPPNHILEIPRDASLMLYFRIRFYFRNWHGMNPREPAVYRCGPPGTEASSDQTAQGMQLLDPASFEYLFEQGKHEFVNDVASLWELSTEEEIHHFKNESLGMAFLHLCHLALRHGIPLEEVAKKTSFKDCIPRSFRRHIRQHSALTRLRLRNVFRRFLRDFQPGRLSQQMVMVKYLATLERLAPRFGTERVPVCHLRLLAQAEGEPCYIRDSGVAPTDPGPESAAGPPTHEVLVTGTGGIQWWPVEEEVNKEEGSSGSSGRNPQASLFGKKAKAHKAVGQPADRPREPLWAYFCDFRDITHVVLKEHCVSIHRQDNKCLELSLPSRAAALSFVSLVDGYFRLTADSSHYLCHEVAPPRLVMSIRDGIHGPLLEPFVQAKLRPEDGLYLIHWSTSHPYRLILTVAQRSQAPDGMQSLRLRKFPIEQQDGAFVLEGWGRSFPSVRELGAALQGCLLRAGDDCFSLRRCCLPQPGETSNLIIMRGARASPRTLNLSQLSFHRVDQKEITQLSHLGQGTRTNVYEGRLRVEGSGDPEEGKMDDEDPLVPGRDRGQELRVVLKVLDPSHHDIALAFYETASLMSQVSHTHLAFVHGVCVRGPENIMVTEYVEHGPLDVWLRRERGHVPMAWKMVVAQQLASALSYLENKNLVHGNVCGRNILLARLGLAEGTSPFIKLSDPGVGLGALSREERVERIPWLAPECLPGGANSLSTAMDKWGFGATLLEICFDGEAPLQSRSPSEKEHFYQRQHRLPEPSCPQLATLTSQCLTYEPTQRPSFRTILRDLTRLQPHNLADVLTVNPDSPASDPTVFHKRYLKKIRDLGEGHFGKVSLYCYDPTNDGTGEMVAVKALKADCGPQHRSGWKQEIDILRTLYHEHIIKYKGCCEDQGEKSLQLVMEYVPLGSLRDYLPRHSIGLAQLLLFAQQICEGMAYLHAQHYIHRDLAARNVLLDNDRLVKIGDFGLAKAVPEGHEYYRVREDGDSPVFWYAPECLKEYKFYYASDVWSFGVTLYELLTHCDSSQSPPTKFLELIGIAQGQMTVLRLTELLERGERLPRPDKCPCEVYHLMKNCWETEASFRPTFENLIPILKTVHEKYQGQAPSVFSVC
Assay Comment: pSTAT4 Cell Assay (MSD, NK92 cells)
Type: cell-based
pIC50: −log10 of the molar value.
Catalogue of pIC50 readings, one per entry.

# Compound, Observed Property, Observed Value
measured = [
    ("COC1CCN(c2cnc(-c3cnc(NC(C)=O)cc3Nc3ccnc(C(C)(F)F)n3)cn2)C1 (stereo not drawn)", "pIC50", "7.00 to 8.00"),
    ("CC(=O)Nc1cc(Nc2ccnc(C(C)(F)F)n2)c(-c2cnc(N3C[C@H]4C[C@@H](C3)O4)cn2)cn1", "pIC50", "7.00 to 8.00"),
    ("CC(=O)Nc1cc(Nc2ccnc(C(C)(F)F)n2)c(-c2cnc(N3C[C@H]4C[C@@H]3CO4)cn2)cn1", "pIC50", "7.00 to 8.00"),
]

Note: attention shifts to another entry.
Requested field: pIC50. Item: CCc1cc(Nc2cc(NC(C)=O)ncc2-c2ccc(COC)cn2)nc(C(C)(F)F)n1 ≥ 8.00

* * *

Catalogue of IC50 readings, one per entry.
Experimental Target: Tyk2 (Homo sapiens (Human))
Assay Comment: pSTAT4 Cell Assay (MSD, NK92 cells)
Assay type: cell-based
Assay Setup: MSD

Field: example entries. Status: answers known.
# Smiles, IC50
data = [
    ("CC(=O)Nc1cc(Nc2cc(C)nc(C(C)(F)F)n2)c(-c2nc(C)co2)cn1", "10 to 100 nM"),
    ("CC(=O)Nc1cc(Nc2cc(C)nc(C(C)(F)F)n2)c(-c2cccc(OC(F)F)n2)cn1", "≤ 10 nM"),
    ("CC(=O)Nc1cc(Nc2cc(C)nc(C(C)(F)F)n2)c(OCCOC(C)C)cn1", "10 to 100 nM"),
    ("CC(=O)Nc1cc(Nc2cc(C)nc(C(C)(F)F)n2)c(OCc2cnn(C3CCC3)c2)cn1", "100 to 1000 nM"),
    ("COCCOc1ccnc(Nc2cc(NC(C)=O)ncc2-c2ccn(C)n2)n1", "100 to 1000 nM"),
    ("COc1cnc(NC(C)=O)cc1Nc1cc(-c2ccc(F)c(C#N)c2)nc(C(C)(F)F)n1", "100 to 1000 nM"),
]

Note: attention shifts to another entry.
Give the reported IC50 for COc1nccc(-c2cnc(NC(C)=O)cc2Nc2ccnc(C(C)(F)F)n2)n1 (system: Tyk2 (Homo sapiens (Human))). ≤ 10 nM

* * *

Experimental Target: UniProt:P29597
Assay Comment: pSTAT4 Cell Assay (MSD, NK92 cells)
Type: cell-based
Assay Setup: MSD
Catalogue of IC50 readings, one per entry.

# Compound, Experimental Target, Observed Value
rows = [
    ("CC(=O)Nc1cc(Nc2cc(C)nc(C(C)(F)F)n2)c(-c2ccccn2)cn1", "UniProt:P29597", "≤ 10 nM"),
    ("COc1cnc(NC(C)=O)cc1Nc1cc(OC2CC2)nc(C(C)(F)F)n1", "UniProt:P29597", "10 to 100 nM"),
    ("CC(=O)Nc1cc(Nc2ccnc(C(C)(F)F)n2)c(-c2coc(C)n2)cn1", "UniProt:P29597", "10 to 100 nM"),
    ("CCOc1cnc(NC(C)=O)cc1Nc1cc(-c2cccnc2)nc(C(C)(F)F)n1", "UniProt:P29597", "10 to 100 nM"),
    ("CCn1ncc(-c2cnc(NC(C)=O)cc2Nc2ccnc(C(C)(F)F)n2)n1", "UniProt:P29597", "10 to 100 nM"),
]

Requested field: IC50. Item: CC(=O)Nc1cc(Nc2cc(C)nc(C(C)(F)F)n2)c(-c2cccc([C@H]3CN(C)CCO3)n2)cn1 (single isomer, unassigned) ≤ 10 nM

Also check CC(=O)Nc1cc(Nc2cc(C)nc(C(C)(F)F)n2)c(OCc2csnc2C)cn1 100 to 1000 nM

Also check CCc1cc(Nc2cc(NC(C)=O)ncc2-c2ccc(CN3CCOCC3)cn2)nc(C(C)(F)F)n1 ≤ 10 nM

Also check CCOc1cnc(NC(C)=O)cc1Nc1cc(-c2cnn(CC)c2)nc(C(C)(F)F)n1 10 to 100 nM

* * *

Catalogue of IC50 readings, one per entry.
Experimental Target: JH2 domain of human Tyk2 (Homo sapiens (Human), UniProt P29597)
Assay Comment: JH2 Biochemical Assay (TR-FRET probe displacement)
Type: binding
Assay Setup: JH2 domain of human Tyk2, TR-FRET probe displacement

Field: example entries. Status: answers known.
# Molecule, IC50
data = [
    ("CC(=O)Nc1cc(Nc2cc(C)nc(C(C)(F)F)n2)c(OCC2(F)CCCOC2)cn1 (stereo not shown)", "≤ 10 nM"),
    ("CCn1ccc(-c2cnc(NC(C)=O)cc2Nc2cc(C)nc(C(C)(F)F)n2)n1", "≤ 10 nM"),
    ("COc1nc(-c2cnc(NC(C)=O)cc2Nc2cc(C)nc(C(C)(F)F)n2)ncc1C", "10 to 100 nM"),
]

Give the reported IC50 for CC(=O)Nc1cc(Nc2cc(C)nc(C(C)(F)F)n2)c(-c2ccc([C@@H]3CN(C)CCO3)cn2)cn1 (single isomer, unassigned) (system: JH2 domain of human Tyk2 (Homo sapiens (Human), UniProt P29597)). ≤ 10 nM

Also check CC(=O)Nc1cc(Nc2cc(C)nc(C(C)(F)F)n2)c(-n2cc(C)cn2)cn1 ≤ 10 nM

Also check CC(=O)Nc1cc(Nc2cc(C)nc(C(C)(F)F)n2)c(-c2cc(CN3CCOCC3)n(C)n2)cn1 ≤ 10 nM

Also check CCOc1cnc(NC(C)=O)cc1Nc1cc(C)nc(C2CC2(C)C)n1 (racemic) ≤ 10 nM

* * *

Experimental Target: JH2 domain of human Tyk2 (Homo sapiens (Human), UniProt P29597)
Assay Comment: JH2 Biochemical Assay (TR-FRET probe displacement)
Assay type: binding
Assay Setup: TR-FRET probe displacement, JH2 domain of human Tyk2
Where a name gives a salt, the structure may show the parent alone.
Observed Property: IC50

Field: example entries. Status: answers known.
# Compound, IC50
data = [
    ("CCOc1cnc(NC(C)=O)cc1Nc1cc(-c2cnn(CCOC)c2)nc(C(C)(F)F)n1", "≤ 10 nM"),
    ("COCCOc1cnc(NC(C)=O)cc1Nc1cc(C)cc(C(C)(F)F)n1", "≤ 10 nM"),
    ("CC(=O)Nc1cc(Nc2cc(C)nc(C(C)(F)F)n2)c(OCCOC2CC2)cn1", "≤ 10 nM"),
    ("CCc1cnc(NC(C)=O)cc1Nc1cc(C)nc(C(C)(F)F)n1", "10 to 100 nM"),
    ("COc1cc(-c2cnc(NC(C)=O)cc2Nc2ccnc(C(C)(F)F)c2)ncn1", "10 to 100 nM"),
]

Give the reported IC50 for CCOc1cnc(NC(C)=O)cc1Nc1cc(F)nc(C(C)(F)F)n1 [Example 94, trifluoroacetate] (system: JH2 domain of human Tyk2 (Homo sapiens (Human), UniProt P29597)). ≤ 10 nM

Also check CC(=O)Nc1cc(Nc2cc(C)nc(C(C)(F)F)n2)c(-c2ccc(C#N)cn2)cn1 ≤ 10 nM

Also check CC(=O)Nc1cc(Nc2cc(C)nc(C(C)(F)F)n2)c(OCc2ncc(C3CC3)o2)cn1 ≤ 10 nM

Also check CC(=O)Nc1cc(Nc2cccc(OC(F)F)n2)c(-c2ccncn2)cn1 ≤ 10 nM

Also check COCCn1cc(-c2cnc(NC(C)=O)cc2Nc2cc(C)nc(C(C)(F)F)n2)nn1 ≤ 10 nM

* * *

Experimental Target: Tyk2 (Homo sapiens (Human), UniProt P29597)
Assay Comment: pSTAT4 Cell Assay (MSD, NK92 cells)
Format: cell-based
Assay Setup: MSD
pIC50: −log10 of the molar value.
Observed Property: pIC50

Field: example entries. Status: answers known.
# Compound, pIC50
rows = [
    ("[2H]C([2H])([2H])Oc1cnc(NC(C)=O)cc1Nc1cc(C(C)C)nc(C(C)(F)F)n1", "7.00 to 8.00"),
    ("CC(=O)Nc1cc(Nc2cc(C)nc(C(C)(F)F)n2)c(-c2ccn(C3CC3)n2)cn1", "≥ 8.00"),
    ("CCOc1cnc(NC(C)=O)cc1Nc1cc(OC2CC(C#N)C2)nc(C(C)(F)F)n1 (stereo not shown)", "≥ 8.00"),
    ("CC(=O)Nc1cc(Nc2ccnc(C(C)(F)F)n2)c(-c2ccn(CC3CC3)n2)cn1", "≥ 8.00"),
    ("CCc1cc(Nc2cc(NC(C)=O)ncc2-c2cn(CCOC)nn2)nc(C(C)(F)F)n1", "≥ 8.00"),
]

Requested field: pIC50. Item: COc1cc(Nc2cc(NC(C)=O)ncc2-c2ncc(F)cn2)nc(C(C)(F)F)n1 7.00 to 8.00

Also check CC(=O)Nc1cc(Nc2cc(C)nc(C(C)(F)F)n2)c(-c2ccc(COC(F)F)cn2)cn1 ≥ 8.00
